B1: CPEB3 Ribozyme (parent)
chain: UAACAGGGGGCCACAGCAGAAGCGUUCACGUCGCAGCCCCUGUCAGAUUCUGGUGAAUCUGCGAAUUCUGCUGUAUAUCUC

- Variants of: B1
- protocol: self-cleavage, relative activity (ratio to wild type); higher = more cleavage; in vitro, sequencing
A collection of variants and their measured self-cleavage

Please review the following examples before continuing.
{"variant_name": "U43C U60G", "self-cleavage": 0.3}
{"variant_name": "G42A C59G", "self-cleavage": 0.23}
{"variant_name": "A15G A20U", "self-cleavage": 0.24}
{"variant_name": "C11G U74G", "self-cleavage": 0.84}
{"variant_name": "U41A U66A", "self-cleavage": 0.27}
{"variant_name": "A3G A28G", "self-cleavage": 0.72}
{"variant_name": "G46C U80A", "self-cleavage": 0.2}
{"variant_name": "A35G C38U", "self-cleavage": 1.23}

Let's switch to this variant now.
## Input If you can, please state the reported self-cleavage value of A15U U80C .
## Output 1.03

src = the RNAGym collection of RNA variant scans (doi:10.1093/nar/gkz1192)
